protocol-notes: Aqueous solubility of compound in phosphate buffer saline at pH 6.5 incubated for 20 hrs under shaking condition by shake-flask method based HPLC-DAD analysis
Type: physicochemical
run-conditions: phosphate buffered saline

{"columns": ["smi", "reading-unit", "solubility thermodynamic at 20 h"],
 "data": [
  ["OCCN1CCN(c2nccc3[nH]c(-c4ccc(F)c(F)c4)nc23)CC1", "µM", 95],
  ["Fc1ccc(-c2nc3c(N4CCN(CC(F)(F)F)CC4)nccc3[nH]2)cc1F", "µM", 10],
  ["CN1CCN(C2CCN(c3nccc4[nH]c(C5CCCC5)nc34)CC2)CC1", "µM", 170],
  ["CN1CCN(C(=O)C2CCN(c3nccc4[nH]c(-c5ccc(F)c(F)c5)nc34)CC2)CC1", "µM", 200],
  ["Cc1cc2[nH]c(-c3cc(F)cc(F)c3)nc2c(N2CCC(CN3CCN(C)CC3)CC2)n1", "µM", 200]
]}
